- System Under Test: NMDA receptor glycine sites
- Assay Summary: electrophysiological assay, cloned rat NMDA receptors expressed in Xenopus oocytes
- Experimental Setup: Table II; from electrophysiology using Xenopus oocytes
# note: boundary value 0.3 µM maps to Condition not met; Ki below it maps to Condition met

Completed entries (count: 3):
[
  {
    "Compound": "Cc1cc2nc(O)c(O)nc2c([N+](=O)[O-])c1C [NDMQX]",
    "Label Class": "Condition met"
  },
  {
    "Compound": "[N-]=[N+]=Nc1c(Cl)cc2[nH]c(=O)c(=O)[nH]c2c1Cl [Cl N3 Cl H]",
    "Label Class": "Condition not met"
  },
  {
    "Compound": "Cc1cc([N+](=O)[O-])c2[nH]c(=O)c(=O)[nH]c2c1 [NO2 H Me H]",
    "Label Class": "Condition not met"
  }
]

Here's an entry: Cc1c(Cl)cc2[nH]c(=O)c(=O)[nH]c2c1[N+](=O)[O-] [NMCQX] . Is its Ki below 0.3 µM?
Condition met

Here's an entry: [N-]=[N+]=Nc1c(F)cc2[nH]c(=O)c(=O)[nH]c2c1[N+](=O)[O-] [NO2 N3 F H] . Is its Ki below 0.3 µM?
Condition met
